In this section we review reported IC50 values for a set of molecules.
# target-desc: Fas-activated serine/threonine kinase (Homo sapiens, UniProt Q14296)
# Sequence (Q14296 whole entry): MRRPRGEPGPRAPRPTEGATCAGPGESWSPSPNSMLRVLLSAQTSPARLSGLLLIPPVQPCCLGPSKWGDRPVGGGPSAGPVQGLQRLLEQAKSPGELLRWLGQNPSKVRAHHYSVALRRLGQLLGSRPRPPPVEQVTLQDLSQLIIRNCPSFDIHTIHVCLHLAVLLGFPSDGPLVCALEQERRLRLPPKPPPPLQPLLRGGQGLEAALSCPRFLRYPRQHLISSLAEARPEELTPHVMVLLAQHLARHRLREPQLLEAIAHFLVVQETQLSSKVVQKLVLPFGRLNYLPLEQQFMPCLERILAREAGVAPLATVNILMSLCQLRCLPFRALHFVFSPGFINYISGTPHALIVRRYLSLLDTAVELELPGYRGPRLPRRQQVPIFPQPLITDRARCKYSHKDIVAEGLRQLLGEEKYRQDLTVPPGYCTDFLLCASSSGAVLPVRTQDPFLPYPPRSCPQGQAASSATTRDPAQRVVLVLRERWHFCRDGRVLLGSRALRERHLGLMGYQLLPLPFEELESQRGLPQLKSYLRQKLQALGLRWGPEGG
# method-description: Inhibition of […] human FASTK (355 to 444 residues) extracted from Escherichia coli BL21 (DE3) by Malachite Green dye based assay
Reply with a number, then the unit it belongs to.

Use the examples below as a reference point.
O=C(/C=C/c1ccccc1)c1ccc(Nc2ncnc3sc4c(c23)CCCC4)cc1 : 320 nM
O=C(/C=C/c1ccc(Cl)cc1)c1ccc(Nc2ncnc3sc4c(c23)CCCC4)cc1 : 170 nM

As a next step, examine the molecule that follows.
The recorded IC50 for entry COc1ccc(/C=C/C(=O)c2ccc(Nc3ncnc4sc5c(c34)CCCC5)cc2)cc1OC equals 150 nM
